Recorded values, source ChEMBL document CHEMBL3885861.

- Species on record: Rattus norvegicus
- Experiment: Open TG-GATES - Regimen: Daily Repeat
- Type: toxicity, organism-based, Sprague-Dawley
- Design: regimen Daily Repeat, gender Male, age 6 weeks
- Experimental context: in vivo, po, 300 mg/kg, 72 h, tissue Plasma, route gavage, dose level Middle, time 3 day
Readout label: Ca (mg/dL)
The reply should be a number in mg/dL, with the unit left off.

Request: Give the value of Ca reported for the following: `CN/C(=N/CCSCc1nc[nH]c1C)NC#N`
Response: 11.1

Request: Give the value of Ca reported for the following: `O=C(OC[C@H]1O[C@@H](OC(=O)c2cc(O)c(O)c(OC(=O)c3cc(O)c(O)c(O)c3)c2)[C@H](OC(=O)c2cc(O)c(O)c(OC(=O)c3cc(O)c(O)c(O)c3)c2)[C@@H](OC(=O)c2cc(O)c(O)c(OC(=O)c3cc(O)c(O)c(O)c3)c2)[C@@H]1OC(=O)c1cc(O)c(O)c(OC(=O)c2cc(O)c(O)c(O)c2)c1)c1cc(O)c(O)c(OC(=O)c2cc(O)c(O)c(O)c2)c1`
Response: 10.9

Request: Give the value of Ca reported for the following: `COC(=O)C1=C(C)NC(C)=C(C(=O)OC)C1c1ccccc1[N+](=O)[O-]`
Response: 10.9

Request: Give the value of Ca reported for the following: `CNC(=C[N+](=O)[O-])NCCSCc1ccc(CN(C)C)o1`
Response: 10.9

Request: Give the value of Ca reported for the following: `Cc1nnc2n1-c1ccc(Cl)cc1C(c1ccccc1Cl)=NC2`
Response: 11.1

Request: Give the value of Ca reported for the following: `CCOc1ccc(NC(C)=O)cc1`
Response: 11.1

====

- Species: Rattus norvegicus
- Experiment: Open TG-GATES - Regimen: Single
- Format: toxicity, organism-based, Sprague-Dawley
- Design: regimen Single, gender Male, age 6 weeks
- Experimental context: in vivo, po, 100 mg/kg, 3 h, tissue Plasma, route gavage, dose level Low
Threshold 0.02 mg/dL: DBIL strictly smaller gives true (1), otherwise false (0).

Request: Criterion: DBIL strictly below 0.02 mg/dL. Is it met by CNC(=C[N+](=O)[O-])NCCSCc1ccc(CN(C)C)o1 [RANITIDINE] ?
Response: false (0)

Request: Criterion: DBIL strictly below 0.02 mg/dL. Is it met by CN/C(=N/CCSCc1nc[nH]c1C)NC#N [CIMETIDINE] ?
Response: false (0)

Request: Criterion: DBIL strictly below 0.02 mg/dL. Is it met by Cc1nnc2n1-c1ccc(Cl)cc1C(c1ccccc1Cl)=NC2 [TRIAZOLAM] ?
Response: true (1)

Request: Criterion: DBIL strictly below 0.02 mg/dL. Is it met by COC(=O)C1=C(C)NC(C)=C(C(=O)OC)C1c1ccccc1[N+](=O)[O-] [NIFEDIPINE] ?
Response: true (1)

Request: Criterion: DBIL strictly below 0.02 mg/dL. Is it met by O=C(OC[C@H]1O[C@@H](OC(=O)c2cc(O)c(O)c(OC(=O)c3cc(O)c(O)c(O)c3)c2)[C@H](OC(=O)c2cc(O)c(O)c(OC(=O)c3cc(O)c(O)c(O)c3)c2)[C@@H](OC(=O)c2cc(O)c(O)c(OC(=O)c3cc(O)c(O)c(O)c3)c2)[C@@H]1OC(=O)c1cc(O)c(O)c(OC(=O)c2cc(O)c(O)c(O)c2)c1)c1cc(O)c(O)c(OC(=O)c2cc(O)c(O)c(O)c2)c1 [TANNIC ACID] ?
Response: true (1)
